tested on: 769-P; experiment: GI50 of drug in presence of dasatinib; higher = less potent; details: treatment: drug + dasatinib (fixed dose, not stated); 5 days
measurement-type: GI50 of drug (nM)
Quick note: give the figure in nM, leave out the unit.

{"columns": ["molecule", "assay-target", "GI50 of drug [nM]"],
 "data": [
  ["CC(C)(O)CC(=O)NCCn1ccc2ncnc(Nc3ccc(Oc4cccc(C(F)(F)F)c4)c(Cl)c3)c21 [TAK-285] + Cc1nc(Nc2ncc(C(=O)Nc3c(C)cccc3Cl)s2)cc(N2CCN(CCO)CC2)n1", "769-P", 1700]
]}

Reported GI50 of drug ( O=C(Nc1c[nH]nc1-c1nc2cc(CN3CCOCC3)ccc2[nH]1)NC1CC1 [AT9283] + Cc1nc(Nc2ncc(C(=O)Nc3c(C)cccc3Cl)s2)cc(N2CCN(CCO)CC2)n1 ) = 128

---

system: A498; assay: AUC of dose-response viability curve, drug + dasatinib, normalised to DMSO (arbitrary (AUC of normalised viability)); higher = less growth inhibition; settings: treatment: drug + dasatinib (fixed dose, not stated); 5 days
measurement-type: AUC of dose-response viability curve
Enter the number alone.

{"columns": ["molecule", "AUC of dose-response viability curve"],
 "data": [
  ["COc1cc(OC)c(/C=C/S(=O)(=O)Cc2ccc(OC)c(NCC(=O)[O][Na])c2)c(OC)c1 + Cc1nc(Nc2ncc(C(=O)Nc3c(C)cccc3Cl)s2)cc(N2CCN(CCO)CC2)n1", 1.71],
  ["COc1cc2ncnc(Nc3ccc(F)c(Cl)c3)c2cc1NC(=O)/C=C/CN1CCCCC1 + Cc1nc(Nc2ncc(C(=O)Nc3c(C)cccc3Cl)s2)cc(N2CCN(CCO)CC2)n1", 2.74]
]}

Now examine the next entry.
Reported AUC of dose-response viability curve ( COc1cc2c(Oc3ccc(NC(=O)C4(C(=O)Nc5ccc(F)cc5)CC4)cc3F)ccnc2cc1OCCCN1CCOCC1 + Cc1nc(Nc2ncc(C(=O)Nc3c(C)cccc3Cl)s2)cc(N2CCN(CCO)CC2)n1 ) = 2.47

---

Each entry below carries its recorded minimum viability across doses.
system: 769-P; assay: minimum viability across doses, drug + dasatinib, relative to DMSO (fraction); higher = less growth inhibition; conditions: treatment: drug + dasatinib (fixed dose, not stated); 5 days
Enter the number alone.

Some compounds with recorded minimum viability across doses:
{"columns": ["compound", "measurement-type", "test-result"],
 "data": [
  ["COCC[n+]1c2c(n(Cc3cnccn3)c1C)C(=O)c1ccccc1C2=O [YM155] + Cc1nc(Nc2ncc(C(=O)Nc3c(C)cccc3Cl)s2)cc(N2CCN(CCO)CC2)n1", "minimum viability across doses", 0.00674],
  ["O=C1c2ccccc2-c2n[nH]c3cccc1c23 + Cc1nc(Nc2ncc(C(=O)Nc3c(C)cccc3Cl)s2)cc(N2CCN(CCO)CC2)n1", "minimum viability across doses", 0.558],
  ["Cc1[nH]c(/C=C2\\C(=O)Nc3ccccc32)c(C)c1CCC(=O)O [TSU-68] + Cc1nc(Nc2ncc(C(=O)Nc3c(C)cccc3Cl)s2)cc(N2CCN(CCO)CC2)n1", "minimum viability across doses", 0.66],
  ["OCCn1cc(-c2ccc3c(c2)CC/C3=N\\O)c(-c2ccncc2)n1 [GDC-0879] + Cc1nc(Nc2ncc(C(=O)Nc3c(C)cccc3Cl)s2)cc(N2CCN(CCO)CC2)n1", "minimum viability across doses", 0.605],
  ["Cc1ccc(Nc2nccc(N(C)c3ccc4c(C)n(C)nc4c3)n2)cc1S(N)(=O)=O.Cl [Pazopanib HCl] + Cc1nc(Nc2ncc(C(=O)Nc3c(C)cccc3Cl)s2)cc(N2CCN(CCO)CC2)n1", "minimum viability across doses", 0.123],
  ["O=C(NOCC1CC1)c1ccc(F)c(F)c1Nc1ccc(I)cc1Cl + Cc1nc(Nc2ncc(C(=O)Nc3c(C)cccc3Cl)s2)cc(N2CCN(CCO)CC2)n1", "minimum viability across doses", 0.197],
  ["Cc1cc(C(C)Nc2ccccc2)c2nc(N3CCOCC3)cc(=O)n2c1 (stereo not given) [TGX-221] + Cc1nc(Nc2ncc(C(=O)Nc3c(C)cccc3Cl)s2)cc(N2CCN(CCO)CC2)n1", "minimum viability across doses", 0.346],
  ["CC(=O)Nc1nc(C)c(-c2ccc(Cl)c(S(=O)(=O)NCCO)c2)s1 [PIK-93] + Cc1nc(Nc2ncc(C(=O)Nc3c(C)cccc3Cl)s2)cc(N2CCN(CCO)CC2)n1", "minimum viability across doses", 0.352]
]}

Reported minimum viability across doses ( C=CC(=O)Nc1ccc2ncnc(Nc3ccc(OCc4cccc(F)c4)c(Cl)c3)c2c1.Cc1ccc(S(=O)(=O)O)cc1 [AST-1306] + Cc1nc(Nc2ncc(C(=O)Nc3c(C)cccc3Cl)s2)cc(N2CCN(CCO)CC2)n1 ) = 0.0288

Reported minimum viability across doses ( COc1cc2c(Oc3ccc4[nH]c(C)cc4c3F)ncnc2cc1OCCCN1CCCC1 [Cediranib (AZD2171)] + Cc1nc(Nc2ncc(C(=O)Nc3c(C)cccc3Cl)s2)cc(N2CCN(CCO)CC2)n1 ) = 0.145

---

Each entry below carries its recorded GI50 of drug.
tested on: ACHN; experiment: GI50 of drug in presence of dasatinib; higher = less potent; conditions: treatment: drug + dasatinib (fixed dose, not stated); 5 days
Numeric answer plus unit only.

Some compounds with recorded GI50 of drug:
{"columns": ["compound", "GI50 of drug"],
 "data": [
  ["CC1(C)CCC(c2ccc(Cl)cc2)=C(CN2CCN(c3ccc(C(=O)NS(=O)(=O)c4ccc(N[C@H](CCN5CCOCC5)CSc5ccccc5)c(S(=O)(=O)C(F)(F)F)c4)cc3)CC2)C1 [ABT-263 (Navitoclax)] + Cc1nc(Nc2ncc(C(=O)Nc3c(C)cccc3Cl)s2)cc(N2CCN(CCO)CC2)n1", "1060 nM"],
  ["CNC(=O)Nc1ccc(-c2nc(N3CC4CCC(C3)O4)c3cnn(C4CCC5(CC4)OCCO5)c3n2)cc1 + Cc1nc(Nc2ncc(C(=O)Nc3c(C)cccc3Cl)s2)cc(N2CCN(CCO)CC2)n1", "9.64 nM"],
  ["CCN1CCN(C(=O)Cc2ccc(Nc3ncc(F)c(Nc4ccc(C(=O)Nc5ccccc5Cl)cc4)n3)cc2)CC1 [Aurora A Inhibitor I] + Cc1nc(Nc2ncc(C(=O)Nc3c(C)cccc3Cl)s2)cc(N2CCN(CCO)CC2)n1", "130 nM"]
]}

Now examine the next entry.
The compound Cc1c(CN2CCN(C(=O)[C@H](C)O)CC2)sc2c(N3CCOCC3)nc(-c3cnc(N)nc3)nc12 [GDC-0980 (RG7422)] + Cc1nc(Nc2ncc(C(=O)Nc3c(C)cccc3Cl)s2)cc(N2CCN(CCO)CC2)n1 on ACHN: GI50 of drug was 25.5 nM

---

tested on: UO-31; experiment: GI50 of drug in presence of dasatinib; higher = less potent; settings: treatment: drug + dasatinib (fixed dose, not stated); 5 days
measurement-type: log10(GI50 of drug) (log10 of the value in nM)
In our notation, the value equals log10 of GI50 of drug in nM.

{"columns": ["molecule", "measurement-type", "test-result"],
 "data": [
  ["COc1cc2c(Oc3ccc4[nH]c(C)cc4c3F)ncnc2cc1OCCCN1CCCC1 [Cediranib (AZD2171)] + Cc1nc(Nc2ncc(C(=O)Nc3c(C)cccc3Cl)s2)cc(N2CCN(CCO)CC2)n1 [dasatinib]", "log10(GI50 of drug)", 2.79]
]}

Reported log10(GI50 of drug) ( CN(C)CCOc1ccc(-c2nc(-c3ccncc3)c(-c3ccc4c(c3)CC/C4=N/O)[nH]2)cc1 + Cc1nc(Nc2ncc(C(=O)Nc3c(C)cccc3Cl)s2)cc(N2CCN(CCO)CC2)n1 [dasatinib] ) = 3.92

Reported log10(GI50 of drug) ( CCC(=O)N1CCN(c2ccc(-n3c(=O)ccc4cnc5ccc(-c6cnc7ccccc7c6)cc5c43)cc2C(F)(F)F)CC1 [Torin 1] + Cc1nc(Nc2ncc(C(=O)Nc3c(C)cccc3Cl)s2)cc(N2CCN(CCO)CC2)n1 [dasatinib] ) = 1.89

Reported log10(GI50 of drug) ( O=C(Cc1ccc(-c2ccc(OCCN3CCOCC3)cc2)cn1)NCc1ccccc1 [KX2-391] + Cc1nc(Nc2ncc(C(=O)Nc3c(C)cccc3Cl)s2)cc(N2CCN(CCO)CC2)n1 [dasatinib] ) = 1.97

Reported log10(GI50 of drug) ( CNC(=O)Nc1ccc(-c2nc(N3CC4CCC(C3)O4)c3cnn(C4CCC5(CC4)OCCO5)c3n2)cc1 + Cc1nc(Nc2ncc(C(=O)Nc3c(C)cccc3Cl)s2)cc(N2CCN(CCO)CC2)n1 [dasatinib] ) = 1.59

Reported log10(GI50 of drug) ( COc1cc(OC)c(/C=C/S(=O)(=O)Cc2ccc(OC)c(NCC(=O)[O][Na])c2)c(OC)c1 + Cc1nc(Nc2ncc(C(=O)Nc3c(C)cccc3Cl)s2)cc(N2CCN(CCO)CC2)n1 [dasatinib] ) = 1.77
